- Assay notes: Biodistribution and pharmacokinetics in plasma and liver after intravenous administration in mice
- Type: in vivo
- Test parameters: male, C57 BL/6, mouse, plasma, 240 min, 5 mg/kg intravenous, read-out: plasma concentration at 240 min after dosing
Quantity measured: concentration at 240 min (ng/mL)
Numeric answer only, unit ng/mL assumed.

Can you share its concentration at 240 min? I mean this molecule: C[C@H](CCC(=O)N[C@@H](CC(=O)O)C(=O)OC1CCN(C(=O)[C@H](Cc2ccc(F)cc2)NC(=O)c2cc3cc(Cl)ncc3[nH]2)CC1)[C@H]1CC[C@H]2[C@@H]3[C@H](O)C[C@@H]4C[C@H](O)CC[C@]4(C)[C@H]3C[C@H](O)[C@]12C [Conjugate 6]
97

###

Quantity measured: melting point

Can you share its melting point? I mean this compound: C[C@H](CCC(=O)N(C)CC(=O)OC1CCN(C(=O)[C@H](Cc2ccc(F)cc2)NC(=O)c2cc3cc(Cl)ncc3[nH]2)CC1)[C@H]1CC[C@H]2[C@@H]3[C@H](O)C[C@@H]4C[C@H](O)CC[C@]4(C)[C@H]3C[C@H](O)[C@]12C [Conjugate 2]
183 to 185 °C

###

- System name: rabbit muscle GPa (RMGPa) (Oryctolagus cuniculus)
- Sequence (P00489 2-843 limits assumed): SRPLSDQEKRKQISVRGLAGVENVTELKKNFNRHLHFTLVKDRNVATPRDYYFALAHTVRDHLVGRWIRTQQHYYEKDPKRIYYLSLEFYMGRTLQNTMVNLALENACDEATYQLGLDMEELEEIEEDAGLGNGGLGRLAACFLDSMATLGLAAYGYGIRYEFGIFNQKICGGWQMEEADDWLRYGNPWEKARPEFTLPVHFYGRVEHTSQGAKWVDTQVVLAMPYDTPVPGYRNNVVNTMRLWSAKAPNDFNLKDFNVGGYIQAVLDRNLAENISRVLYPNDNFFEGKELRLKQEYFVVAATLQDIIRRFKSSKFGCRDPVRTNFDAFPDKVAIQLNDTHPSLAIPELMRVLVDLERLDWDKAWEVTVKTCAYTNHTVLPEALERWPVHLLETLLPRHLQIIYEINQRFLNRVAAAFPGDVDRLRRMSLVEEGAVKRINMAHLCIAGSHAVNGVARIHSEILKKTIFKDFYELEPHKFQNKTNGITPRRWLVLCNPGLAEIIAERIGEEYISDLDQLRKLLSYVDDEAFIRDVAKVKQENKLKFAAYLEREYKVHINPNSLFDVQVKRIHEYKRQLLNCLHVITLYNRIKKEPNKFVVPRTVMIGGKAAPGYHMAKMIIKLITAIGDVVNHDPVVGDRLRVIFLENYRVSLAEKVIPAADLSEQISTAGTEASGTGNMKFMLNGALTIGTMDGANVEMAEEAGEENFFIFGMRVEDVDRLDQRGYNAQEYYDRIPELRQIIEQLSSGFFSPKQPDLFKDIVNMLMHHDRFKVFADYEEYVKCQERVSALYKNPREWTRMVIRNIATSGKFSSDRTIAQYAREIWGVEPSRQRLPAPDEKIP
pIC50: −log10 of the molar value.
# label = 1.0 if pIC50 >= 6 else 0.0

Below, 6 compounds whose answers are already recorded.
{"Compound": "CC(CCC(=O)NC(Cc1ccccc1)C(=O)NC(CCCCNC(=O)OCC1c2ccccc2-c2ccccc21)C(=O)OC1CCN(C(=O)C(Cc2ccc(F)cc2)NC(=O)c2cc3cc(Cl)ncc3[nH]2)CC1)C1CCC2C3C(O)CC4CC(O)CCC4(C)C3CC(O)C12C (centres unmarked)", "Class name": 0.0}
{"Compound": "CC(CCC(=O)NC(Cc1ccccc1)C(=O)NC(CCCCN)C(=O)OC1CCN(C(=O)C(Cc2ccc(F)cc2)NC(=O)c2cc3cc(Cl)ncc3[nH]2)CC1)C1CCC2C3C(O)CC4CC(O)CCC4(C)C3CC(O)C12C (centres unmarked) [Conjugate 8]", "Class name": 0.0}
{"Compound": "O=C(CCc1ccccc1/N=N/c1ccc(C(=O)O)cc1)OC1CCN(C(=O)[C@H](Cc2ccc(F)cc2)NC(=O)c2cc3cc(Cl)ncc3[nH]2)CC1", "Class name": 0.0}
{"Compound": "C[C@H](N)C(=O)OC1CCN(C(=O)[C@H](Cc2ccc(F)cc2)NC(=O)c2cc3cc(Cl)ncc3[nH]2)CC1", "Class name": 1.0}
{"Compound": "CC(C)[C@H](NC(=O)OC(C)(C)C)C(=O)N[C@@H](C)C(=O)OC1CCN(C(=O)[C@H](Cc2ccc(F)cc2)NC(=O)c2cc3cc(Cl)ncc3[nH]2)CC1", "Class name": 0.0}
{"Compound": "CC(C)(C)OC(=O)N[C@@H](Cc1ccccc1)C(=O)N[C@@H](CCCCNC(=O)OCC1c2ccccc2-c2ccccc21)C(=O)OC1CCN(C(=O)[C@H](Cc2ccc(F)cc2)NC(=O)c2cc3cc(Cl)ncc3[nH]2)CC1", "Class name": 0.0}

We now examine a further compound.
Kindly determine if pIC50 recorded for `N[C@@H](CO)C(=O)OC1CCN(C(=O)[C@H](Cc2ccc(F)cc2)NC(=O)c2cc3cc(Cl)ncc3[nH]2)CC1` is above or exactly 6.
1.0
